The values you see were collected from paper PMC5667929.

Target: AbdA (Hox);Exd/Hth-HM;Grh (Drosophila melanogaster?;Drosophila …, UniProt P29555;P40427;O46339;P13002 261-590;1-376;127-211;551-1333, ||)
Sequence (P29555 261-590, chain 1 of 4): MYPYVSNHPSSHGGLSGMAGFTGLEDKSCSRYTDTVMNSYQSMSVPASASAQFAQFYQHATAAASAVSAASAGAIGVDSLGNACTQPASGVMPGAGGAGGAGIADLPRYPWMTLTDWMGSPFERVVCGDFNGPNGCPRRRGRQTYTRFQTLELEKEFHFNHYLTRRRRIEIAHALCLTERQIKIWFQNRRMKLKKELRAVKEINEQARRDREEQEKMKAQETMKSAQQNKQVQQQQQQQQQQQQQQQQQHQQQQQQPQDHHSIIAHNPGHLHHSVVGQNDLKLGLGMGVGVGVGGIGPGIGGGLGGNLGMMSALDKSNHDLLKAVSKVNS
Sequence (P40427 whole entry, chain 2 of 4): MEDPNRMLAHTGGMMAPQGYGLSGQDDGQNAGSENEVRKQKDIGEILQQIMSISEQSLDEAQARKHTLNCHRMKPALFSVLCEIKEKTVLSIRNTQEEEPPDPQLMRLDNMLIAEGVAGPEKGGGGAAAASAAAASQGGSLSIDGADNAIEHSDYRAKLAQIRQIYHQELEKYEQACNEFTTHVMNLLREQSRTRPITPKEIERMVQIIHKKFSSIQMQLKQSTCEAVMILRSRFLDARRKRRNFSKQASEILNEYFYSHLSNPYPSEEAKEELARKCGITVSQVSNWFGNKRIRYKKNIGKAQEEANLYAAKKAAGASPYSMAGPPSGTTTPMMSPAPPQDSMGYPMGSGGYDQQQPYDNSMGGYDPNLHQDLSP
Sequence (O46339 127-211, chain 3 of 4): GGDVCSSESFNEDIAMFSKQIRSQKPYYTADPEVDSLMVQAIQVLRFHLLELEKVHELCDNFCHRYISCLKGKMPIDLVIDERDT
Sequence (P13002 551-1333, chain 4 of 4): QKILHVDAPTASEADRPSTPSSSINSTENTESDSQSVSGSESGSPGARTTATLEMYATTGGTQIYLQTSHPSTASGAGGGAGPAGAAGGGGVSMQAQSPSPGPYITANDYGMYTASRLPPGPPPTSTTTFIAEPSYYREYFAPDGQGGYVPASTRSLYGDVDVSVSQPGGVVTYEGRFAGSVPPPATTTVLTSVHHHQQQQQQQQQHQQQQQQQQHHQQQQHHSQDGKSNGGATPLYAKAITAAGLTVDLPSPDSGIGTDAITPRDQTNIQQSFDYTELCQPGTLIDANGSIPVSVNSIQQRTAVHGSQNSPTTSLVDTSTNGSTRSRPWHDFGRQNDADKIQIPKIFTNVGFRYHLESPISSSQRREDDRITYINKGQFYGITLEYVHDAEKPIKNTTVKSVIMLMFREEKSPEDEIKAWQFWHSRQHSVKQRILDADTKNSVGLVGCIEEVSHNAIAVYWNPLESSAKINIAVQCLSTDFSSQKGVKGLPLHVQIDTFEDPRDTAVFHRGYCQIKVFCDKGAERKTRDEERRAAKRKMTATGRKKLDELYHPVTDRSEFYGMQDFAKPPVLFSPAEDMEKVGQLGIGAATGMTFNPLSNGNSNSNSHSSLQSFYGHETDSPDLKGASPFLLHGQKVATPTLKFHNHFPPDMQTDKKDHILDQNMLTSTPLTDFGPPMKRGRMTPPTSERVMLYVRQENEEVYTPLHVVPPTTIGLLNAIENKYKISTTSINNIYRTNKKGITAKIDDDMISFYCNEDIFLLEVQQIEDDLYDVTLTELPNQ
Assay: EMSA; EMSA, 20 ul, 30 min, room temperature; 5X buffer as printed: 20% glycerol, 1 mg/ml BSA, 2.5 mM EDTA, '50mM 1M tris' pH 7.5, 50 mM KCl, 5 mM MgCl2, 2.5 mM DTT, 90 ug/ml poly(dI-dC); proteins 100-200 ng
Conditions: protein: recombinant;recombinant;recombinant; tags: 6xHis;6xHis;6xHis; copies: 1;1;1;2
QUANTITY KIND: binding result

These solved cases illustrate the format of a correct answer.
> print(dat)
                                     binder  measurement
1  motif-27 (dsDNA) DNA 1: TATATGTGGAACCACCTTGAAAGTCTACTGCCTGATTAGT DNA 2: ACTAATCAGGCAGTAGACTTTCAAGGTGGTTCCACATATA        binds
2  motif-33 (dsDNA) DNA 1: TACTGCCTGATTAGTGTAAATAATTGCCAGTCCTTG DNA 2: CAAGGACTGGCAATTATTTACACTAATCAGGCAGTA   no binding
3  motif-30 Exd mutant (dsDNA) DNA 1: GAAACAGGATAACCATAACTGCTCC DNA 2: GGAGCAGTTATGGTTATCCTGTTTC   no binding
4  motif-25 (dsDNA) DNA 1: CGGGATATCACCAAACCATAGAAAATTTGCGGTACA DNA 2: TGTACCGCAAATTTTCTATGGTTTGGTGATATCCCG   no binding
5  motif-30 Grh1 mutant (dsDNA) DNA 1: GAAACACGATAACCATAACTAATCC DNA 2: GGATTAGTTATGGTTATCGTGTTTC   no binding
6  motif-32 (dsDNA) DNA 1: TTGCATGTGCGGATATATATATGTGGAACCACCTTG DNA 2: CAAGGTGGTTCCACATATATATATCCGCACATGCAA        binds

Let us examine a further case.
Asked: Can you look up the measured binding result of motif-31 (dsDNA) DNA 1: ACACAATTTTCTAAGATCCACTGGAATCGGTATGCCGATAGTT DNA 2: AACTATCGGCATACCGATTCCAGTGGATCTTAGAAAATTGTGT for me?
Given back: no binding
